# SUBJECT OF TEST: cathepsin B (Homo sapiens, UniProt P07858)
# Construct: gene CTSB; recombinant cathepsin B
# ASSAY PROCEDURE: cleavage by recombinant cathepsin B followed by HPLC (MMAE release)
# Assay type: biochemical
*1 amine or outer side, *2 acyl side, *3 side chain or, on linkers, in order; H or OH if unused. Where a SMILES comes first, the peptide text is derived from it. [ ]: non-standard residue; d: D form. The star is where a group is joined. X1 = O=C(O)CC[C@H](NC(=O)N[C@@H](CCCCNC(=O)CCCCCCC(=O)*)C(=O)O)C(=O)O; Dolaproine = CO[C@@H]([C@@H]1CCCN1)[C@@H](C)C(=O)O; Dil = CC[C@H](C)[C@H](NC)[C@@H](CC(=O)O)OC; PABC = O=C(OCc1ccc(N[*:1])cc1)[*:2]; X2 = C[C@@H](N*)[C@@H](O)c1ccccc1; Cit = NC(=O)NCCC[C@H](N)C(=O)O; NMeV = CN[C@H](C(=O)O)C(C)C
MEASURED PROPERTY: metabolised at 3 h (%)

[[record]]
compound = "CC[C@H](C)[C@@H]([C@@H](CC(=O)N1CCC[C@H]1[C@H](OC)[C@@H](C)C(=O)N[C@H](C)[C@@H](O)c1ccccc1)OC)N(C)C(=O)[C@@H](NC(=O)[C@H](C(C)C)N(C)C(=O)OCc1ccc(NC(=O)[C@H](CCCNC(N)=O)NC(=O)[C@@H](NC(=O)CCCCCCC(=O)NCCCC[C@H](NC(=O)N[C@@H](CCC(=O)O)C(=O)O)C(=O)O)C(C)C)cc1)C(C)C [SBPD-1] (X1-V[Cit][PABC][NMeV]V[Dil][Dolaproine]-X2)"
recorded_number = 80


The reported numbers originate from paper PMC8007718.
